Origin of the recorded values: patent US9447100B2

Counter-ions that a name gives are not always drawn.
measured.parameter: melting point

compound	melting point
CC(C)(NC(=O)c1cnn2c1NC(c1ccccc1)CC2C(F)(F)F)c1cccc2ccccc12 (stereo not drawn) [Example 368]	221 to 222 °C
CCC(NC(=O)c1cnn2c1NC(c1ccccc1)CC2C(F)(F)F)c1ccccc1F (stereo not drawn) [Example 400]	204 to 205 °C
CCC(CC)(NC(=O)c1cnn2c1NC(c1ccccc1)CC2C(F)(F)F)c1cccc(Br)c1 (stereo not drawn) [Example 398]	167 to 168 °C
CCC(CC)(NC(=O)c1c(C)nn2c1N[C@H](c1ccccc1)CC2(C)C)c1ccc(Cl)cc1 [Example 1041]	131 to 132 °C
CCCCOC(=O)CCCOc1ccc(C(CC)(CC)NC(=O)c2cnn3c2NC(c2ccccc2)CC3(C)C)cc1 (stereo not drawn) [Example 818]	133 to 134 °C
CCC(CC)(NC(=O)c1c(C)nn2c1NC(c1cccs1)CC2(C)C)c1ccccc1 (stereo not drawn) (as salt: HCl) [Example 958]	171 to 172 °C

Q: Identify melting point associated with the compound CCC1(CC)C[C@@H](OC)CN1C(=O)c1c(C)nn2c1N[C@@H](c1ccccc1)CC2(C)C [Example 1099]
Result: 132 to 134 °C

Q: Identify melting point associated with the compound CCC(CC)(CCC(F)(F)F)NC(=O)c1cnn2c1NC(c1ccccc1)CC2(C)C (stereo not drawn) [Example 698]
Result: 84 to 85 °C

Q: Identify melting point associated with the compound CCc1ccc(C(CC)(CC)NC(=O)c2cnn3c2NC(c2ccccc2)CC3(C)C)cc1 (stereo not drawn) [Example 647]
Result: 156 to 157 °C

Q: Identify melting point associated with the compound CCCC(CC)(CC)NC(=O)c1cnn2c1N[C@@H](c1ccccc1)CC2(C)C (as salt: HCl) [Example 1072]
Result: 185 to 186 °C

Q: Identify melting point associated with the compound CCC1(CC)C[C@H](O)CN1C(=O)c1cnn2c1N[C@@H](c1ccccc1)CC2(C)C (as salt: HCl) [Example 1118]
Result: 247 to 249 °C

Q: Identify melting point associated with the compound CCC(CC)(c1ccc(C)cc1)c1nnc(-c2c(C)nn3c2N[C@@H](c2ccccc2)CC3(C)C)s1 [Example 1143]
Result: 132 to 134 °C

###

measured.parameter: melting point

Sample answers from the record:
compound	measured.parameter	data.value
CC1(C)CC(c2ccccc2)Nc2c(C(=O)NC3(C(N)=O)CCCCC3)cnn21 (stereo not shown) [Example 626]	melting point	140 to 141 °C
CC(NC(=O)c1cnn2c1N[C@H](c1ccccc1)C[C@@H]2C(F)(F)F)C(=O)c1ccccc1 (stereo in doubt) [Example 291]	melting point	178 to 179 °C
CC1(C)C[C@H](c2ccccc2)Nc2c(C(=O)NC34CC5CC(CC(C5)C3)C4)cnn21 [Example 1030]	melting point	226 to 227 °C

Q: Identify melting point associated with the compound CCOC(=O)c1cnn2c1NC(c1ccco1)CC2C(F)(F)F (stereo not shown) [Example 14]
Result: 86 °C

Q: Identify melting point associated with the compound Cc1ccc(C2CC(C)(C)n3ncc(C(=O)O)c3N2)c(C)c1 (stereo not shown) [Example 952]
Result: 155 to 157 °C

Q: Identify melting point associated with the compound O=C(NC12CC3CC(CC(C3)C1)C2)c1cnn2c1NC(c1ccco1)CC2C(F)(F)F (stereo not shown) [Example 270]
Result: 230 to 231 °C

Q: Identify melting point associated with the compound COc1ccc(C(NC(=O)c2cnn3c2NC(c2ccccc2)CC3(C)C)c2ccc(OC)cc2)cc1 (stereo not shown) [Example 407]
Result: 184 to 185 °C

Q: Identify melting point associated with the compound COc1ccccc1C1CC(C)(C)n2nc(C)c(C(=O)O)c2N1 (stereo not shown) [Example 944]
Result: 198 to 199 °C

Q: Identify melting point associated with the compound COC(=O)C1(NC(=O)c2cnn3c2N[C@H](c2ccccc2)C[C@@H]3C(F)(F)F)CCCCC1 (stereo in doubt) [Example 367]
Result: 213 to 214 °C

Q: Identify melting point associated with the compound CC1(C)CC(c2ccccc2)Nc2c(C(=O)NC3(C(=O)O)CCCCC3)cnn21 (stereo not shown) [Example 625]
Result: 215 to 216 °C

Q: Identify melting point associated with the compound CCCc1ccc(C(CC)(CC)NC(=O)c2cnn3c2NC(c2ccccc2)CC3(C)C)cc1 (stereo not shown) [Example 706]
Result: 177 to 178 °C

Q: Identify melting point associated with the compound CCC1(CC)C[C@H](O)CN1C(=O)c1cnn2c1N[C@@H](c1ccccc1)CC2(C)C [Example 1117]
Result: 249 to 251 °C

###

Counter-ions that a name gives are not always drawn.
Listed here: items and their measured melting point.

Sample answers from the record:
compound	melting point
CCC(CC)(NC(=O)c1cnn2c1NC(c1ccccc1)CC2(C)C)c1ccc(CO)cc1 (centres unmarked)	178 to 179 °C
Cc1ccc(C(C)(C)NC(=O)c2c(C)nn3c2NC(c2ccccc2)CC3(C)C)cc1 (centres unmarked) (as salt: HCl)	193 to 194 °C
COc1ccccc1C1CC(C(F)(F)F)n2ncc(C(=O)O)c2N1 (centres unmarked)	189 to 190 °C
Cc1nn2c(c1C(=O)NC(C)(C)c1ccc(Cl)cc1)NC(c1ccccc1)CC2(C)C (centres unmarked) (as salt: HCl)	204 to 205 °C
CCc1ccc(C2CC(C(F)(F)F)n3ncc(C(=O)O)c3N2)cc1 (centres unmarked)	165 to 168 °C
CCC(CC)(NC(=O)c1c(C)nn2c1N[C@@H](c1ccccc1)CC2(C)C)c1ccc(O)cc1	160 to 161 °C

Q: Identify melting point associated with the compound CCC(CC)(NC(=O)c1cnn2c1NC(c1ccccc1)CC2(C)C)c1ccc(OCCCC(=O)O)cc1 (centres unmarked)
Result: 170 to 171 °C

Q: Identify melting point associated with the compound CCCCC(CCCC)(NC(=O)c1cnn2c1NC(c1ccccc1)CC2(C)C)c1ccc(C(F)(F)F)cc1 (centres unmarked)
Result: 113 to 114 °C

###

Structures can show the parent of a compound that is named as a salt.
measured.parameter: melting point

Sample answers from the record:
molecule	melting point
O=C(On1nnc2ccccc21)c1cnn2c1N[C@H](c1ccccc1)C[C@@H]2C(F)(F)F (stereo in doubt) [Example 372]	216 to 217 °C
CCC(CC)(NC(=O)c1c(C)nn2c1NC(c1ccccc1)CC2(C)C)c1ccccc1F (centres unmarked) (as salt: HCl) [Example 843]	180 to 182 °C
CCC(CC)(NC(=O)c1c(C)nn2c1N[C@@H](c1ccccc1)CC2(C)C)c1ccc(N(C)C)cc1 (as salt: HCl) [Example 1071]	141 to 142 °C
CC1(C)CC(c2ccccc2)Nc2c(C(=O)NC3(CO)CCCCC3)cnn21 (centres unmarked) [Example 644]	175 to 176 °C

Q: Identify melting point associated with the molecule CCCC(CC)(CC)NC(=O)c1c(C)nn2c1N[C@@H](c1ccccc1)CC2(C)C (as salt: HCl) [Example 1055]
Result: 176 to 177 °C

Q: Identify melting point associated with the molecule CCC(CC)(NC(=O)c1cnn2c1NC(c1ccccc1)CC2(C)C)c1ccc(COC(C)=O)cc1 (centres unmarked) [Example 737]
Result: 185 to 186 °C

Q: Identify melting point associated with the molecule CCC(CC)(NC(=O)c1cnn2c1NC(c1ccccc1)CC2(C)C)c1ccc(N(C)C)cc1 (centres unmarked) [Example 778]
Result: 128 to 129 °C

Q: Identify melting point associated with the molecule CCC(CC)(NC(=O)c1cnn2c1NC(c1ccccc1Cl)CC2(C)C)c1ccc(C)cc1 (centres unmarked) (as salt: HCl) [Example 961]
Result: 128 to 130 °C

###

Where a name gives a salt, the structure may show the parent alone.
Listed here: items and their measured melting point.

molecule	melting point
CCC(CC)(NC(=O)c1cnn2c1NC(c1ccccc1OC)CC2(C)C)c1ccc(F)cc1 (stereo not shown) [Example 600]	206.2 to 206.3 °C
CCC(CC)(CCOC)NC(=O)c1cnn2c1NC(c1ccccc1)CC2(C)C (stereo not shown) [Example 664]	129 to 130 °C
CCC(CC)(NC(=O)c1cnn2c1NC(c1ccccc1)CC2(C)C)c1cccc(C(F)(F)F)c1 (stereo not shown) [Example 434]	166 to 167 °C

The record that follows has no melting point shown yet.
Q: Identify melting point associated with the molecule CCC(CC)(NC(=O)c1c(C)nn2c1N[C@H](c1ccccc1F)CC2(C)C)c1ccc(C)cc1 (as salt: HCl) [Example 1083]
Result: 203 to 204 °C

###

measured.parameter: melting point

compound	melting point
CCC(CC)(NC(=O)c1c(C)nn2c1N[C@@H](c1ccccc1)CC2(C)C)c1ccc(Cl)cc1 [Example 1042]	128 to 129 °C
CCOC(=O)CCc1ccc(C(CC)(CC)NC(=O)c2cnn3c2NC(c2ccccc2)CC3(C)C)cc1 (stereo not drawn)	135 to 136 °C
CCC1(CC)CC(c2ccccc2)Nc2c(C(=O)NC34CC5CC(CC(C5)C3)C4)cnn21 (stereo not drawn)	213 to 214 °C
CCC(CC)(NC(=O)c1cnn2c1NC(c1ccccc1)CC2(C)C)c1ccc(C#N)cc1 (stereo not drawn)	237 to 238 °C

Q: Identify melting point associated with the compound O=C(NC1(C(=O)O)CCCCC1)c1cnn2c1N[C@H](c1ccccc1)C[C@@H]2C(F)(F)F (stereo in doubt)
Result: 236 to 237 °C
